assayed.system: panel of more than 300 wild-type and mutant kinases (313 kinase panel) (Homo sapiens, UniProt Q9UK32)
Sequence (Q9UK32 whole entry, change not shown): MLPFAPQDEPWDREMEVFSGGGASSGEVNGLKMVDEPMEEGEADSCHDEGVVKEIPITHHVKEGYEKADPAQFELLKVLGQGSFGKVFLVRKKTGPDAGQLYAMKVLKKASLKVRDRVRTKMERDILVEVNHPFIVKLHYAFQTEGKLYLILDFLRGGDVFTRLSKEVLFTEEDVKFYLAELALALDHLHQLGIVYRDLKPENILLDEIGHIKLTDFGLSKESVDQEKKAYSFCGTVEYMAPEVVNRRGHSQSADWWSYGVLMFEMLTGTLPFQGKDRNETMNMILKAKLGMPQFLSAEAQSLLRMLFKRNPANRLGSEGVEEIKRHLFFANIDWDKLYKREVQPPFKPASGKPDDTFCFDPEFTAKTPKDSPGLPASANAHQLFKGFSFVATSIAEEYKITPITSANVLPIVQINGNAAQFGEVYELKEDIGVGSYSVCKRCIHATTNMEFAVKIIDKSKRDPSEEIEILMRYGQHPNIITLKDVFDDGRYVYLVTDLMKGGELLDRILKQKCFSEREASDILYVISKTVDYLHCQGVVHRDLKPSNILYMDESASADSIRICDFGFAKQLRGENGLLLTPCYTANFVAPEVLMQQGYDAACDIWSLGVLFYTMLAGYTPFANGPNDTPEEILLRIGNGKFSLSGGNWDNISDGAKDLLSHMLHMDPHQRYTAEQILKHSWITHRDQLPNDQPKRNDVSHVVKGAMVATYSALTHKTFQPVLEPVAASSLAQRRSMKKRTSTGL
procedure.summary: Kinase profiling in a biochemical assay panel (mobility shift assays and ELISA), %-inhibition at 1 μM; selectivity entropy
condition.details: kinase RSK4; 1 μM
readout.label: %-inhibition of RSK4 (%)
Return type: number; implicit unit %.

As a guide, the following entries are already answered.
COc1cc(Nc2c(C#N)cnc3cc(OCCCN4CCN(C)CC4)c(OC)cc23)c(Cl)cc1Cl    43
COc1cc2c(Nc3ccc(Br)cc3F)ncnc2cc1OCC1CCN(C)CC1    5.43
COc1cc2nccc(Oc3ccc(NC(=O)C4(C(=O)Nc5ccc(F)cc5)CC4)cc3)c2cc1OC [cabozantinib]    -3.65
Cc1ccc(C(=O)Nc2ccc(CN3CCN(C)CC3)c(C(F)(F)F)c2)cc1C#Cc1cnc2cccnn12    13
CO[C@H]1C[C@@H]2CC[C@@H](C)[C@@](O)(O2)C(=O)C(=O)N2CCCC[C@H]2C(=O)O[C@H]([C@H](C)C[C@@H]2CC[C@@H](OC(=O)C(C)(CO)CO)[C@H](OC)C2)CC(=O)[C@H](C)/C=C(\C)[C@@H](O)[C@@H](OC)C(=O)[C@H](C)C[C@H](C)/C=C/C=C/C=C/1C    -6
CCCS(=O)(=O)Nc1ccc(F)c(C(=O)c2c[nH]c3ncc(-c4ccc(Cl)cc4)cc23)c1F    -3

// moving on: another record for %-inhibition of RSK4
-- ask # input compound: CC(C)(C)c1nc(-c2cccc(NS(=O)(=O)c3c(F)cccc3F)c2F)c(-c2ccnc(N)n2)s1 ; wanted: its %-inhibition of RSK4
-- reply 2.2

###

assayed.system: panel of more than 300 wild-type and mutant kinases (313 kinase panel) (Homo sapiens, UniProt Q8TDX7)
procedure.summary: Kinase profiling in a biochemical assay panel (mobility shift assays and ELISA), %-inhibition at 1 μM; selectivity entropy
condition.details: kinase NEK7; 1 μM
# %-inhibition of NEK7 values compiled below
The reply should be a number in %, with the unit left off.

Completed entries (count: 6):
COc1cc2c(Nc3ccc(Br)cc3F)ncnc2cc1OCC1CCN(C)CC1 [vandetanib]    -6
O=S(=O)(c1cccc2cnccc12)N1CCCNCC1 [fasudil]    -1.52
CCCS(=O)(=O)Nc1ccc(F)c(C(=O)c2c[nH]c3ncc(-c4ccc(Cl)cc4)cc23)c1F [vemurafenib]    -3.56
CC(C)(C)c1nc(-c2cccc(NS(=O)(=O)c3c(F)cccc3F)c2F)c(-c2ccnc(N)n2)s1 [dabrafenib]    2.28
N#CC[C@H](C1CCCC1)n1cc(-c2ncnc3[nH]ccc23)cn1 [ruxolitinib]    -1.81
Cc1ccc(C(=O)Nc2ccc(CN3CCN(C)CC3)c(C(F)(F)F)c2)cc1C#Cc1cnc2cccnn12 [ponatinib]    -10

# evaluate next
-- ask Look up %-inhibition of NEK7 for this compound: Cc1ccc(Nc2nccc(N(C)c3ccc4c(C)n(C)nc4c3)n2)cc1S(N)(=O)=O [pazopanib]
-- reply -4.75

###

assayed.system: panel of more than 300 wild-type and mutant kinases (313 kinase panel) (Homo sapiens, UniProt P22694)
procedure.summary: Kinase profiling in a biochemical assay panel (mobility shift assays and ELISA), %-inhibition at 1 μM; selectivity entropy
condition.details: kinase PKACβ; 1 μM
readout.label: %-inhibition of PKACβ (%)
Form entry: value (%) — number only.

Examples with their reported %-inhibition of PKACβ follow.
CO[C@H]1C[C@@H]2CC[C@@H](C)[C@@](O)(O2)C(=O)C(=O)N2CCCC[C@H]2C(=O)O[C@H]([C@H](C)C[C@@H]2CC[C@@H](OCCO)[C@H](OC)C2)CC(=O)[C@H](C)/C=C(\C)[C@@H](O)[C@@H](OC)C(=O)[C@H](C)C[C@H](C)/C=C/C=C/C=C/1C    -6
CNC(=O)c1cc(Oc2ccc(NC(=O)Nc3ccc(Cl)c(C(F)(F)F)c3)c(F)c2)ccn1    -0.531

Now take the following compound into account.
-- ask Name the reported %-inhibition of PKACβ value associated with the compound Cc1ccc(Nc2nccc(N(C)c3ccc4c(C)n(C)nc4c3)n2)cc1S(N)(=O)=O
-- reply 0.211
